- measurement-notes: Pharmacokinetic study in mice, plasma by LC-MS/MS
- Format: in vivo, female C57BL/6 mice
- experimental-conditions: mouse, ip, 60 mg/kg
measured-property: Cmax (µM)
Numbers only, in µM.

The compound listed as [NH3+][Pt-2]1([NH3+])[O]C(=O)C2(CCC2)C(=O)[O]1 [Carboplatin] has a reported Cmax of 131

====

- Tested on: MCF-7
- measurement-notes: MTT viability assay, MCF-7
- Assay type: cell-based, human
- experimental-conditions: 72h (Table 3b); read-out: MCF-7 IC50
measured-property: IC50 (µM)
Give bare numbers, in µM.

// assay MCF-7, entry CC(N)C(N)CCCCCC(=O)O.O=C1[O][Pt][O]C1=O (stereo not shown) [PMX118] , IC50 value = 100
